assay: self-splicing fitness, log relative to wild type (ln ratio); higher = more splicing; Tetrahymena group I intron in knt gene, E. coli kanamycin selection, DiMSum; sequences stand for … in CUCUCU…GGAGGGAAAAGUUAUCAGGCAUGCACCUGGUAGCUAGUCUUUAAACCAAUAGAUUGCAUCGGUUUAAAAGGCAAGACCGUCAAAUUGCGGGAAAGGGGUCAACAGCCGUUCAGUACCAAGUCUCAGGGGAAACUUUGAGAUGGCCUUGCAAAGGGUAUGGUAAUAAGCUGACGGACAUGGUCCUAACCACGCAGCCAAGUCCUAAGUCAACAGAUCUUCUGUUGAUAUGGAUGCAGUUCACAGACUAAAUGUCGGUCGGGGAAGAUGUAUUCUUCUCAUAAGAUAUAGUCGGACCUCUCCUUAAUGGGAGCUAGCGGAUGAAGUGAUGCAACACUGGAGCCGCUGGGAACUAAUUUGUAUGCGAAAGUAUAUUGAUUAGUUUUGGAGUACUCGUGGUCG; conditions: 37 °C;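 note: selection with 25 µg/mL kanamycin versus none on LB agar overnight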
Kind request: treat -2 as inclusive, so self-splicing fitness (ln) at -2 or higher is met, anything lower is not met.

Q: Form field: self-splicing fitness (ln) at least -2? Entry: GGACAGCAAUAUUACGUAGU
A: met

Q: # iterate: AGCUAGCAAUAUUACGACGC
A: met

Q: # iterate: CUAGAGCAAUAUUACGUUCC
A: met

Q: # iterate: UAGUAGCAAUAUUACGUCUC
A: met

Q: # iterate: UAACAGCAAUAUUACGUAGG
A: met

Q: # iterate: CUUGAGCAAUAUUACGAUAA
A: met

Q: # iterate: ACUUAGCAAUAUUACGAGAA
A: not met
